Test system: Salmonella typhimurium
Experiment: Antibacterial activity against Salmonella typhimurium ATCC14028 assessed as inhibition of bacterial growth incubated for 18 hrs by microdilution method
Type: functional, Salmonella enterica subsp. enterica serovar Typhimurium
Settings: Salmonella enterica

| Compound | MIC |
| --- | --- |
| C[C@@H](COCc1ccccc1)C[C@H](C)C[C@H](C)C#CC(O)C[C@@H](O)c1cc(O)cc(O)c1 (some centres undefined) | > 256 µg/mL |
| Cc1ccc(NCC[C@@H](O)[C@@H](CC(C)C)[C@@H](O)c2cc(O)cc(O)c2)c(Cl)c1 | > 256 µg/mL |
| CC(C)C[C@H]([C@H](O)C[C@H](O)C#C[C@@H](C)C[C@H](C)C[C@@H](C)COCc1ccccc1)[C@@H](O)c1cc(O)cc(O)c1 | > 256 µg/mL |
| CC(C)C[C@@H]([C@H](O)C[C@H](O)CCCCCCCCNCc1ccccc1)[C@@H](O)c1cc(O)cc(O)c1 | 4 µg/mL |
| CCC(=O)[C@H](C)C[C@H](C)C[C@H](C)CC[C@@H](O)C[C@@H](O)[C@@H](CC(C)C)[C@@H](O)c1cc(O)cc(O)c1 | > 256 µg/mL |
| Cc1onc(-c2ccccc2)c1C(=O)N[C@@H]1C(=O)N2[C@@H]1SC(C)(C)[C@@H]2C(=O)O | 64 µg/mL |
| CCn1cc(C(=O)O)c(=O)c2cc(F)c(N3CCNCC3)cc21 | 2 µg/mL |
| CC(C)C[C@H]([C@H](O)CCNc1cccc(C(F)(F)F)c1)[C@@H](O)c1cc(O)cc(O)c1 | > 256 µg/mL |
| CC(C)C[C@H]([C@H](O)C[C@H](O)C#CCCCCCCOCc1ccccc1)[C@@H](O)c1cc(O)cc(O)c1 | > 256 µg/mL |

----------
Target: L-2,3-diaminopropanoate--citrate ligase (Staphylococcus aureus (strain NCTC 8325 / PS 47))
Sequence (whole entry): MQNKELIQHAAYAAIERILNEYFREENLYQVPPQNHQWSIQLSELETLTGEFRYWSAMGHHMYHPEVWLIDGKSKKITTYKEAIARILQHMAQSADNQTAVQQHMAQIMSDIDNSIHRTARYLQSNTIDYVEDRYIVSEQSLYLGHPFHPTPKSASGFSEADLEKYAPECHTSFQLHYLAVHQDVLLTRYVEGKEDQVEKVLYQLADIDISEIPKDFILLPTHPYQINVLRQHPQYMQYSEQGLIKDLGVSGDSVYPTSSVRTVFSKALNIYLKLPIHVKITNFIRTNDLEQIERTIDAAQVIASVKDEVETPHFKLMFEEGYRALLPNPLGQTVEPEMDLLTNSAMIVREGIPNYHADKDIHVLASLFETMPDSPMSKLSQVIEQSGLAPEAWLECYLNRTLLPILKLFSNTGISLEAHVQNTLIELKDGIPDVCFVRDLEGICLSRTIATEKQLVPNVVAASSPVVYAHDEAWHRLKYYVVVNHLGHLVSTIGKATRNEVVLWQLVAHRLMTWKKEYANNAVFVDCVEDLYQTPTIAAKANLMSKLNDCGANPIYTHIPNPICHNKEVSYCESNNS
Test: Inhibition of Staphylococcus aureus SbnE at 50 uM incubated for 1 hr by malachite green staining based microplate reader analysis relative to control
Attribute: inhibition
Property name: inhibition (%)

| Molecule | Property name | Recorded measurement |
| --- | --- | --- |
| CC(C)C[C@H]([C@H](O)C[C@H](O)C#C[C@@H](C)C[C@@H](C)C[C@@H](C)COCc1ccccc1)[C@@H](O)c1cc(O)cc(O)c1 | inhibition | 77.5 |
| C[C@@H](COCc1ccccc1)C[C@H](C)C[C@H](C)C#CC(O)C[C@@H](O)c1cc(O)cc(O)c1 (some centres not stated) | inhibition | 76.4 |
| CC(C)C[C@@H]([C@H](O)C[C@H](O)C#CCCCCCCOCc1ccccc1)[C@@H](O)c1cc(O)cc(O)c1 | inhibition | 97.1 |
| CC(C)C[C@@H]([C@H](O)CCNCc1ccccc1)[C@@H](O)c1cc(O)cc(O)c1 | inhibition | 5.63 |
| C[C@@H](COCc1ccccc1)C[C@H](C)C[C@H](C)C#CC(O)CC(O)C[C@@H](O)c1cc(O)cc(O)c1 (single isomer, unassigned) | inhibition | 33.6 |
| CC(C)C[C@@H]([C@H](O)C[C@H](O)CC[C@@H](C)C[C@H](C)C[C@@H](C)CO)[C@@H](O)c1cc(O)cc(O)c1 | inhibition | 31.1 |
| CC(C)C[C@@H]([C@H](O)C[C@H](O)CCCCCCCCNCc1ccccc1)[C@@H](O)c1cc(O)cc(O)c1 | inhibition | 57.9 |
| CC(C)C[C@H]([C@H](O)CCNCc1cccc([N+](=O)[O-])c1)[C@@H](O)c1cc(O)cc(O)c1 | inhibition | 50.8 |
| Cc1onc(-c2ccccc2)c1C(=O)N[C@@H]1C(=O)N2[C@@H]1SC(C)(C)[C@@H]2C(=O)O | inhibition | 10.2 |
| CC(C)C[C@H]([C@H](O)CCNc1ccccn1)[C@@H](O)c1cc(O)cc(O)c1 | inhibition | 36.4 |
| CC(C)C[C@@H]([C@H](O)CCCCCCCCCCO)[C@@H](O)c1cc(O)cc(O)c1 | inhibition | 19.8 |
| CCn1cc(C(=O)O)c(=O)c2cc(F)c(N3CCNCC3)cc21 | inhibition | 16.8 |
| CCC[C@@H](O)[C@@H](CC(C)C)[C@@H](O)c1cc(O)cc(O)c1 | inhibition | 25.6 |
| C[C@@H](CO)C[C@H](C)C[C@H](C)C#CC(O)CC(O)C[C@@H](O)c1cc(O)cc(O)c1 (single isomer, unassigned) | inhibition | 6.92 |
| CCC(=O)[C@H](C)C[C@H](C)C[C@H](C)CC[C@@H](O)C[C@@H](O)[C@@H](CC(C)C)[C@@H](O)c1cc(O)cc(O)c1 | inhibition | 61.2 |
| CC(C)C[C@H]([C@H](O)CCNc1cccc([N+](=O)[O-])c1)[C@@H](O)c1cc(O)cc(O)c1 | inhibition | 5.19 |
| CC(C)C[C@H]([C@H](O)CCNCc1ccccc1)[C@@H](O)c1cc(O)cc(O)c1 | inhibition | 97.1 |
| CC(C)C[C@H]([C@H](O)CCNc1ccc(Cl)cc1Cl)[C@@H](O)c1cc(O)cc(O)c1 | inhibition | 41.8 |
| CC(C)C[C@H]([C@H](O)CCO)[C@@H](O)c1cc(O)cc(O)c1 | inhibition | 28.3 |
| CC(C)C[C@H]([C@H](O)C[C@H](O)C#C[C@@H](C)C[C@H](C)C[C@@H](C)COCc1ccccc1)[C@@H](O)c1cc(O)cc(O)c1 | inhibition | 71.7 |
| CC(C)C[C@H]([C@H](O)CCNc1cccc(C(F)(F)F)c1)[C@@H](O)c1cc(O)cc(O)c1 | inhibition | 71.1 |
| CC(C)C[C@H]([C@H](O)CCNCc1ccco1)[C@@H](O)c1cc(O)cc(O)c1 | inhibition | 34.5 |
| Cc1ccc([N+](=O)[O-])cc1NCC[C@@H](O)[C@@H](CC(C)C)[C@@H](O)c1cc(O)cc(O)c1 | inhibition | 32 |
| CCN(CC[C@@H](O)[C@@H](CC(C)C)[C@@H](O)c1cc(O)cc(O)c1)Cc1ccccc1 | inhibition | 5.19 |
| CC(C)C[C@H]([C@H](O)CCNc1ccn(C)n1)[C@@H](O)c1cc(O)cc(O)c1 | inhibition | 48.2 |
| C=CC[C@@H](O)[C@@H](CC(C)C)[C@@H](O)c1cc(O)cc(O)c1 | inhibition | 96.8 |
| CC(C)C[C@@H]([C@H](O)CCCC[C@@H](C)C[C@H](C)C[C@@H](C)CO)[C@@H](O)c1cc(O)cc(O)c1 | inhibition | 79.4 |
| Cc1ccc(NCC[C@H](O)[C@@H](CC(C)C)[C@@H](O)c2cc(O)cc(O)c2)c(Cl)c1 | inhibition | 54.8 |
| C[C@@H](COCc1ccccc1)C[C@H](C)C[C@H](C)C#CC(O)c1cc(O)cc(O)c1 (some centres not stated) | inhibition | 34.8 |
| CC(C)C[C@H]([C@H](O)CCNc1ccc(O)cc1)[C@@H](O)c1cc(O)cc(O)c1 | inhibition | 8.18 |
| CC(C)C[C@H]([C@H](O)CCNc1cc(Cl)c(F)cc1[N+](=O)[O-])[C@@H](O)c1cc(O)cc(O)c1 | inhibition | 6.49 |
| CC(C)C[C@@H]([C@@H](O)C[C@H](O)CC[C@@H](C)C[C@H](C)C[C@@H](C)CO)[C@@H](O)c1cc(O)cc(O)c1 | inhibition | 59.1 |
